Every entry's value here was drawn from ChEMBL document CHEMBL4325896.

- Assay info: AUC (0 to 24 hrs) in Sprague-Dawley rat at 50 mg/kg, po by HPLC-DAD-IT-TOF-MS analysis
- Assay type: ADME, organism-based
- Design: dose 50 mg/kg, time < 24 hr, route oral
- Condition: in vivo

{"Test smiles": "C[C@@H]1O[C@H]2O[C@H]3[C@@H](OC[C@H](O)[C@@H]3O)OC(=O)[C@]34CCC(C)(C)C[C@H]3C3=CC[C@@H]5[C@@]6(C)C[C@H](O)[C@H](O[C@@H]7O[C@H](CO)[C@@H](O)[C@H](O)[C@H]7O[C@@H]7OC[C@H](OC(=O)C[C@](C)(O)CC(=O)O[C@@H]1[C@@H](O[C@@H]1OC[C@@H](O)[C@H](O)[C@H]1O)[C@H]2O)[C@H](O)[C@H]7O)[C@@](C)(CO)[C@@H]6CC[C@@]5(C)[C@]3(C)CC4", "Readout unit": "ng·h/mL", "AUC(0-t) at 24 h": 8800}

* * *

- Assay info: Oral bioavailability in Sprague-Dawley rat at 50 mg/kg by LC-MS analysis
- Format: ADME, organism-based
- Condition: in vivo

{"Test smiles": "C[C@@H]1O[C@H]2O[C@H]3[C@@H](OC[C@H](O)[C@@H]3O)OC(=O)[C@]34CCC(C)(C)C[C@H]3C3=CC[C@@H]5[C@@]6(C)C[C@H](O)[C@H](O[C@@H]7O[C@H](CO)[C@@H](O)[C@H](O)[C@H]7O[C@@H]7OC[C@H](OC(=O)C[C@](C)(O)CC(=O)O[C@@H]1[C@@H](O[C@@H]1OC[C@@H](O)[C@H](O)[C@H]1O)[C@H]2O)[C@H](O)[C@H]7O)[C@@](C)(CO)[C@@H]6CC[C@@]5(C)[C@]3(C)CC4", "Readout unit": "%", "bioavailability": 0.23}
